Molecular target: T1, ZFP SBS#667 (synthetic)
T1 chain: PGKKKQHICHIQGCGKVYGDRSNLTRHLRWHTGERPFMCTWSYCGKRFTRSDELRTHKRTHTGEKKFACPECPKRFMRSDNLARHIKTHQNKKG
Assay: EMSA
Details: tags: MBP fusion
result type: pKd
Answers are plain numbers, as −log10 of the molar value.

Entry GAGTCGGACG (dsDNA) DNA 1: GAGTCGGACG DNA 2: CGTCCGACTC , pKd reported as 7.30

The reported numbers originate from patent US20030068675.
